Data origin: patent EP4572800B1

Test system: calcium channel L-type, dihydropyridine
Experiment: Transporter ligand binding inhibition, calcium channel L-type
Parameters: species or system rats
Details: final concentration of tetrazine 10 µM; rat; ligand binding
metricName: % Calcium channel L-type dihydropyridine inhibition (%)
Use % as the unit, but write only the number.

Need % Calcium channel L-type dihydropyridine inhibition, item O=C(O)CN(CC(=O)O)CC(=O)Nc1ccc(-c2nnc(-c3ccccn3)nn2)nc1
-3

// query: O=C(O)CN(CCN(CC(=O)O)CC(=O)Nc1ccc(-c2nnc(-c3ccccn3)nn2)nc1)CC(=O)O
10

Moving on to the next compound: O=C(O)CCOCCOCCOCCC(=O)Nc1ccc(-c2nnc(-c3ccccn3)nn2)nc1
-17

Next up: O=C(O)CN1CCN(CC(=O)O)CCN(CC(=O)NCCOCCOCCOCCOCCOCCOCCOCCOCCOCCOCCOCCNC(=O)CCCC(=O)Nc2ccc(-c3nnc(-c4ccccn4)nn3)nc2)CCN(CC(=O)O)CC1 [compound 2.1, reference compound]
44

Now consider O=C([O-])CN(CCN(CC(=O)[O-])CC(=O)Nc1ccc(-c2nnc(-c3ccccn3)nn2)nc1)CC(=O)[O-].[Ca+2].[Na+] and answer again.
1

----------
Biological target: cyclooxygenase (COX-1) (Homo sapiens)
Sequence (P23219 24-599): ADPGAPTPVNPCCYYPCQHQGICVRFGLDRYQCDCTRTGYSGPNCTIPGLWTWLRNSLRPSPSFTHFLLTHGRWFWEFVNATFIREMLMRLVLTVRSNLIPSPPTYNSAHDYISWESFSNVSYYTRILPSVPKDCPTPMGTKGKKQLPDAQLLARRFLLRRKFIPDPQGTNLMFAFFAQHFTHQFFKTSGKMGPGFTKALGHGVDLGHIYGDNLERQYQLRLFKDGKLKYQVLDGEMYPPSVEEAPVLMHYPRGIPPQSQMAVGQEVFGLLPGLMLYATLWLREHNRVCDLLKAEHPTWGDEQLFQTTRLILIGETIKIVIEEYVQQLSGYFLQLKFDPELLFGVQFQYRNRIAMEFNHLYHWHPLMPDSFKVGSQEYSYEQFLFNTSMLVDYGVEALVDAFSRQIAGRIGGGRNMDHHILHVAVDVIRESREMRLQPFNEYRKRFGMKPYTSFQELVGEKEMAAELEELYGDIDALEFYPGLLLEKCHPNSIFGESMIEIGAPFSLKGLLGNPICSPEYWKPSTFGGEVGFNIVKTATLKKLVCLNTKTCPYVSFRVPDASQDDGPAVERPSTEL
Assay: Enzyme inhibition study, COX-1
Format: biochemical, humans
Conditions: final concentration of tetrazine 10 µM; human COX-1
// -1 strictly below 20% in % COX-1 inhibition; 1 otherwise

Item O=C(O)CN(CC(=O)O)CC(=O)Nc1ccc(-c2nnc(-c3ccccn3)nn2)nc1 with % COX-1 inhibition of 20% or above?
-1

For O=C([O-])CN(CCN(CC(=O)[O-])CC(=O)Nc1ccc(-c2nnc(-c3ccccn3)nn2)nc1)CC(=O)[O-].[Ca+2].[Na+] then?
-1

Please give the result for O=C(O)CN(CCN(CC(=O)O)CC(=O)Nc1ccc(-c2nnc(-c3ccccn3)nn2)nc1)CC(=O)O too.
1

Consider next the compound O=C(O)CN1CCN(CC(=O)O)CCN(CC(=O)NCCOCCOCCOCCOCCOCCOCCOCCOCCOCCOCCOCCNC(=O)CCCC(=O)Nc2ccc(-c3nnc(-c4ccccn4)nn3)nc2)CCN(CC(=O)O)CC1 [compound 2.1, reference compound] in the same way.
1

Entry O=C(O)CCOCCOCCOCCC(=O)Nc1ccc(-c2nnc(-c3ccccn3)nn2)nc1 please
1

----------
Assay: Maximum tolerated dose (MTD) study in mice, single intravenous dose
Type: in vivo
Conditions: both sexes, Swiss albino, mouse, in vivo, iv, mice, single intravenous dose, observed up to 72 hours post-dose
metricName: MTD at 72 h

Recorded MTD at 72 h for O=C(O)CN(CCN(CC(=O)O)CC(=O)Nc1ccc(-c2nnc(-c3ccccn3)nn2)nc1)CC(=O)O , please?
≥ 57 µmol/kg

# iterate: O=C(O)CN1CCN(CC(=O)O)CCN(CC(=O)NCCOCCOCCOCCOCCOCCOCCOCCOCCOCCOCCOCCNC(=O)CCCC(=O)Nc2ccc(-c3nnc(-c4ccccn4)nn3)nc2)CCN(CC(=O)O)CC1 [compound 2.1, reference compound]
~39 µmol/kg

----------
Please respond with reported % MAO-B inhibition for every item in the list.
Molecular target: monoamine oxidase (MAO-B) (Homo sapiens, UniProt P27338)
Sequence (P27338 whole entry): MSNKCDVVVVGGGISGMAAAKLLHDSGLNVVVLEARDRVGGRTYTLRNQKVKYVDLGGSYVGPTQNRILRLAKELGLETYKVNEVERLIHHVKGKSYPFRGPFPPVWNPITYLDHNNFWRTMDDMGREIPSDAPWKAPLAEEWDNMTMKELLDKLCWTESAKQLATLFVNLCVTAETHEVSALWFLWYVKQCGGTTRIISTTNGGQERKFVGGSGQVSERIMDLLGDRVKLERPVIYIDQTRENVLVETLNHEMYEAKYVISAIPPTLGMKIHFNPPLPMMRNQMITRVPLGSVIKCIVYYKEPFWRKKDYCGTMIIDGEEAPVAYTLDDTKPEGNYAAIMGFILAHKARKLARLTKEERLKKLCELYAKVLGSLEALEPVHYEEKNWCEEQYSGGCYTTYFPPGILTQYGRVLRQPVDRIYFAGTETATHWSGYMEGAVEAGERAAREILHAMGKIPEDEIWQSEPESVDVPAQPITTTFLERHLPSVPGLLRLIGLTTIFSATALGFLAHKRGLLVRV
Assay: Enzyme inhibition study, MAO-B
Assay type: biochemical, humans
Conditions: final concentration of tetrazine 10 µM; human MAO-B
Answer format: value, then unit.

Find the recorded % MAO-B inhibition belonging to O=C(O)CN(CC(=O)O)CC(=O)Nc1ccc(-c2nnc(-c3ccccn3)nn2)nc1 [2.10] and report it.
22%

Also need O=C(O)CN1CCN(CC(=O)O)CCN(CC(=O)NCCOCCOCCOCCOCCOCCOCCOCCOCCOCCOCCOCCNC(=O)CCCC(=O)Nc2ccc(-c3nnc(-c4ccccn4)nn3)nc2)CCN(CC(=O)O)CC1 [compound 2.1, reference compound] , thanks.
36%

One more compound: O=C(O)CCOCCOCCOCCC(=O)Nc1ccc(-c2nnc(-c3ccccn3)nn2)nc1 [2.7]
38%

Check O=C(O)CN(CCN(CC(=O)O)CC(=O)Nc1ccc(-c2nnc(-c3ccccn3)nn2)nc1)CC(=O)O [2.4] too.
20%

Then O=C([O-])CN(CCN(CC(=O)[O-])CC(=O)Nc1ccc(-c2nnc(-c3ccccn3)nn2)nc1)CC(=O)[O-].[Ca+2].[Na+] [2.5] ?
9%
